- TARGET UNDER TEST: T1, FLRT3 (antigen of the binning assay of Table 2) (Homo sapiens (Human), UniProt Q9NZU0 29-528, limits assumed)
- T1 construct: the whole entry for FLRT3 is named
- T1 sequence: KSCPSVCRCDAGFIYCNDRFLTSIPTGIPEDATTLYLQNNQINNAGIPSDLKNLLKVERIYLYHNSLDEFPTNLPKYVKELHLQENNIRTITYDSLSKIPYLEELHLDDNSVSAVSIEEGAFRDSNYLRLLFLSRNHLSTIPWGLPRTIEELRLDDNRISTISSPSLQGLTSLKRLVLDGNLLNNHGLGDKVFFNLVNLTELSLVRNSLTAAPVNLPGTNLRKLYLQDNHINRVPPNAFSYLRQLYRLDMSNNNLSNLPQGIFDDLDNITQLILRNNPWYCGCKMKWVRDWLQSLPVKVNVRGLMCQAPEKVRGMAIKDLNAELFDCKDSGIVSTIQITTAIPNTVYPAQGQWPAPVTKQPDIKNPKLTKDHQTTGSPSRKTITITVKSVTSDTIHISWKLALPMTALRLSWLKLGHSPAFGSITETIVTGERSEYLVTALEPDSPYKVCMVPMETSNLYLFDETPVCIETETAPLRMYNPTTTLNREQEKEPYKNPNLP
- EXPERIMENTAL DETAILS: antibody binning matrix (Table 2); competitor: 15G11
READOUT KIND: binning response (no name or unit printed)
Format: numeric value only, no unit, no commentary.

# input binder: 14D3 (antibody, V domains shown, Variable domains only) VH: EIQLQQSGAELVKPGASVKISCKASGYSFTGYNMNWVKQSHGKSLEWIGNITPYYGSASYNQKFKGKATLTVDKSSSTAYMQLNSLTSEDSAVYYCARRSYDYDENAMDYWGQGTSVTVSS VL: DIVMTQSHKFMSTSVGDRVSITCKASQDLSTAVAWYQQKPGQSPKLLIYSASYRYTGVPDRFTGSGSGTDFTFTISSVQAEDLAVYYCQQHYSTPLTFGAGTKLELK ; wanted: its binning response (no name or unit printed) 0.196
